Recorded values, source patent US20240252641A1.

- assayed-system: T1, CD70 on cells (CHO-CD70, JVM-3, U266, Raji, THP-1, T cells) (human, UniProt P32970 1-193)
- T1 construct: whole, on cells; also called cell-surface CD70
- T1 sequence (looked up): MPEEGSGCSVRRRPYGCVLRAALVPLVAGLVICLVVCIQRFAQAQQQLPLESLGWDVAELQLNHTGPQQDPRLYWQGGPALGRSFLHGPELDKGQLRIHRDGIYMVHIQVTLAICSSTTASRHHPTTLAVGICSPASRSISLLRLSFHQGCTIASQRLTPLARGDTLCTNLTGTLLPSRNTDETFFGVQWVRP
- assay-remarks: on JVM-3 cells
Would you mind telling me the reported cell binding of each entry?
Kindly provide the number alone.

GET /values?readout=cell binding&item= 1E3 (antibody, V domains shown, alloy mouse hybridoma antibody; also called 1E3D9) VH: QLQLQESGPGLVKPSETLSLTCTVSGASITSTSYYWNWIRQPPGKGLEWIGRISYSGSTYYNPSLKSRVTISVDTSKNQFSLKLSSVTATDTAVYYCARQIRYNWNPDTFDIWGQGTMVTVSS VL: EIVMTQSPATLSVSPGERATLSCRASQSLNSNLAWYQQKPAQAPRLLIYGASTRATGIPARFSGSGSGTEFTLTISSLQSEDFAVYYCQQYDNWPLTFGGGTKVEIK
121000

Proceed to 15F8 (antibody, V domains shown, alloy mouse hybridoma antibody; also called 15F8D8; 15F8D9) VH: EVQLVESGGGVVRPGGSLRLSCAASGFTFDDYGVSWVRQAPGRGLEWVSGINWNGGSTAYADSVKGRFTISRDSAKNSLYLQMDSLRAEDTALYYCAREEGSYYVWYFDIWGRGTLVTVSS VL: DIQMTQSPSSLSASVGDRVTITCRPSQSISNYLNWYQQKPGKAPKVLIYASFILQSGVPSRFGGSGSGTDFTLTISSLQPEDFATYYCQQSYSNPFTFGPGTKVDIK
234000

Proceed to 9B2 (antibody, V domains shown) VH: QLQVVESGGGLMQPGGSLRLSCAASGFTFSGSAMSWVRQAPGKGLEWVSSIYSHSMYTYYADSVKSRFTISTDNAKNTLYLQMNSLKPDDTAVYYCAASSDYEGLFVSWGQGTQVTVSS VL: QAVLTQPPSLSASPGSSVRLTCTLNSANSVGSYDISWYQQKAGSPPRYLLYYYSDSLSHQGSGVPSRFSGSTDASANAGLLLISGLQPEDEADYYCSAYNRGSHVFGGGTKLTVL
8940
